For each entry below, report its Efficacy value.
Test system: P2Y purinoceptor 2 (Homo sapiens), P41231 [R180A]
ASSAY PROCEDURE: Agonist activity at N-terminal HA epitope-tagged human P2Y2 receptor R180A mutant expressed in human 1321N1 cells assessed as increase in intracellular calcium level relative to carbachol
Assay type: functional, cell-based
Give bare numbers, in %.

COMPOUND	Efficacy [%]
Nc1ncnc2c1ncn2[C@@H]1O[C@H](COP(=O)(O)OP(=O)(O)OP(=O)(O)OP(=O)(O)OC[C@H]2O[C@@H](n3cnc4c(N)ncnc43)[C@H](O)[C@@H]2O)[C@@H](O)[C@H]1O [DIADENOSINE TETRAPHOSPHATE]	68

Provide Efficacy values for the following items, in order.
1. O=c1ccn([C@@H]2O[C@H](COP(=O)(O)OP(=O)(O)OP(=O)(O)OP(=O)(O)OC[C@H]3O[C@@H](n4ccc(=O)[nH]c4=O)[C@H](O)[C@@H]3O)[C@@H](O)[C@H]2O)c(=O)[nH]1
2. Nc1ncnc2c1ncn2[C@@H]1O[C@H](COP(=O)(O)OP(=O)(O)OP(=O)(O)O)[C@@H](O)[C@H]1O [ADENOSINE TRIPHOSPHATE]
3. O=c1ccn([C@@H]2O[C@H](COP(=O)(O)OP(=O)(O)OP(=O)(O)O)[C@@H](O)[C@H]2O)c(=O)[nH]1 [URIDINE TRIPHOSPHATE]

*A*
1. 72
2. 115
3. 130

----------
System: P2Y purinoceptor 2 (Homo sapiens), P41231 [Y118A]
Sequence (P41231 whole entry Y118A): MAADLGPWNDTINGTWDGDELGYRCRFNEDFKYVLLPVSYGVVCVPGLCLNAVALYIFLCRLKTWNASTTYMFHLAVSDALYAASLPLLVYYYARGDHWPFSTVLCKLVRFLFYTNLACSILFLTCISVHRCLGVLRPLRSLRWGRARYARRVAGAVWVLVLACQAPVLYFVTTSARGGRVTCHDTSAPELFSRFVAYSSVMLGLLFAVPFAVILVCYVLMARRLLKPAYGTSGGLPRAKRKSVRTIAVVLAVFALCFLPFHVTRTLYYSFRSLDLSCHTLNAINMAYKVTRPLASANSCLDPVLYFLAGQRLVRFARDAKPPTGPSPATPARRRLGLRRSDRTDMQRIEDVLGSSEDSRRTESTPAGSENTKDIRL
ASSAY PROCEDURE: Agonist activity at N-terminal HA epitope-tagged human P2Y2 receptor Y118A mutant expressed in human 1321N1 cells assessed as increase in intracellular calcium level relative to carbachol
Format: functional, cell-based
MEASURED PROPERTY: Efficacy (%)
Numbers only, in %.

Each compound below has a reported value. Please supply its Efficacy.
1. O=c1ccn([C@@H]2O[C@H](COP(=O)(O)OP(=O)(O)OP(=O)(O)O)[C@@H](O)[C@H]2O)c(=O)[nH]1 [URIDINE TRIPHOSPHATE]
2. Nc1ncnc2c1ncn2[C@@H]1O[C@H](COP(=O)(O)OP(=O)(O)OP(=O)(O)O)[C@@H](O)[C@H]1O [ADENOSINE TRIPHOSPHATE]

*A*
43
41

Consider the following items and state reported Efficacy for each.
1. O=c1ccn([C@@H]2O[C@H](COP(=O)(O)OP(=O)(O)OP(=O)(O)OP(=O)(O)OC[C@H]3O[C@@H](n4ccc(=O)[nH]c4=O)[C@H](O)[C@@H]3O)[C@@H](O)[C@H]2O)c(=O)[nH]1
2. Nc1ncnc2c1ncn2[C@@H]1O[C@H](COP(=O)(O)OP(=O)(O)OP(=O)(O)OP(=O)(O)OC[C@H]2O[C@@H](n3cnc4c(N)ncnc43)[C@H](O)[C@@H]2O)[C@@H](O)[C@H]1O [DIADENOSINE TETRAPHOSPHATE]

*A*
[25, 15]

----------
ASSAYED SYSTEM: P2Y purinoceptor 2 (Homo sapiens, UniProt P41231, C278S)
Sequence (P41231 whole entry C278S): as the sequence (P41231 whole entry Y118A) above, with A118Y, C278S counted along it
ASSAY PROCEDURE: Agonist activity at N-terminal HA epitope-tagged human P2Y2 receptor C278S mutant expressed in human 1321N1 cells assessed as increase in intracellular calcium level
Would you kindly list pEC50 for each of these compounds?
Give bare numbers, as −log10 of the molar value.

COMPOUND	pEC50
O=c1ccn([C@@H]2O[C@H](COP(=O)(O)OP(=O)(O)OP(=O)(O)O)[C@@H](O)[C@H]2O)c(=O)[nH]1 [URIDINE TRIPHOSPHATE]	5.68

Okay, here is my list. What is pEC50 for each of these?
1. Nc1ncnc2c1ncn2[C@@H]1O[C@H](COP(=O)(O)OP(=O)(O)OP(=O)(O)O)[C@@H](O)[C@H]1O [ADENOSINE TRIPHOSPHATE]
2. Nc1ncnc2c1ncn2[C@@H]1O[C@H](COP(=O)(O)OP(=O)(O)OP(=O)(O)OP(=O)(O)OC[C@H]2O[C@@H](n3cnc4c(N)ncnc43)[C@H](O)[C@@H]2O)[C@@H](O)[C@H]1O [DIADENOSINE TETRAPHOSPHATE]

*A*
1: 6.00; 2: 4.09
